# Tested on: L1210
# assay_notes: Tested for comparative cytotoxicity as ratio of IC50 value, relative to 3-substituted derivative (1.00).
# Format: functional, Mus musculus
Lab note: anything with Ratio below 1 is marked Y; values at 1 or higher are marked N.

>>> df
                      given_smiles  category_label
 0   Cc1cccc2nc3cccc(C(N)=O)c3nc12               Y
 1   Cc1ccc2nc3c(C(N)=O)cccc3nc2c1               N
 2  COc1ccc2nc3cccc(C(N)=O)c3nc2c1               N
 3  NC(=O)c1cccc2nc3ccc(Cl)cc3nc12               N
 4  COc1ccc2nc3c(C(N)=O)cccc3nc2c1               N
 5  COc1cccc2nc3c(C(N)=O)cccc3nc12               N
 6  COc1ccc(C(N)=O)c2nc3ccccc3nc12               Y
 7  NC(=O)c1cccc2nc3cccc(Cl)c3nc12               Y
 8   Cc1ccc2nc3cccc(C(N)=O)c3nc2c1               N
 9  NC(=O)c1cccc2nc3cc(Cl)ccc3nc12               N
10   Cc1cccc2nc3c(C(N)=O)cccc3nc12               N
11  NC(=O)c1cccc2nc3c(Cl)cccc3nc12               N
12  COc1cccc2nc3cccc(C(N)=O)c3nc12               Y

====

# Tested on: L1210
# assay_notes: Tested for comparative cytotoxicity as ratio of IC50 value, relative to OMe derivative (1.00).
# Type: functional, Mus musculus
measured_endpoint: Ratio

In [3]: df
Out[3]:
                     given_smiles  recorded_number
0  COc1ccc2nc3c(C(N)=O)cccc3nc2c1                1
1  NC(=O)c1cccc2nc3cccc(Cl)c3nc12              0.2
2  COc1cccc2nc3cccc(C(N)=O)c3nc12                1
3  COc1ccc2nc3cccc(C(N)=O)c3nc2c1                1
4   Cc1cccc2nc3cccc(C(N)=O)c3nc12              0.9
5  NC(=O)c1cc(Cl)cc2nc3ccccc3nc12              0.4
6  NC(=O)c1cccc2nc3ccc(Cl)cc3nc12              0.6
7  COc1cc(C(N)=O)c2nc3ccccc3nc2c1                1
8   Cc1cccc2nc3c(C(N)=O)cccc3nc12              0.6
9  NC(=O)c1cccc2nc3c(Cl)cccc3nc12              0.6

====

# Tested on: L1210
# assay_notes: Tested for comparative cytotoxicity as ratio of IC50 value, relative to OMe derivative (1.00).
# Assay type: functional, Mus musculus
measured_endpoint: Ratio

In [3]: df
Out[3]:
                     given_smiles  assay_system  measured_endpoint  recorded_number
0   Cc1ccc2nc3c(C(N)=O)cccc3nc2c1         L1210              Ratio              0.4
1  COc1cccc2nc3c(C(N)=O)cccc3nc12         L1210              Ratio                1
2   Cc1ccc2nc3cccc(C(N)=O)c3nc2c1         L1210              Ratio              0.9
3   Cc1cc(C(N)=O)c2nc3ccccc3nc2c1         L1210              Ratio              0.5
4   Cc1ccc(C(N)=O)c2nc3ccccc3nc12         L1210              Ratio              0.7
5  NC(=O)c1cccc2nc3cc(Cl)ccc3nc12         L1210              Ratio              0.3
6  COc1ccc(C(N)=O)c2nc3ccccc3nc12         L1210              Ratio                1

====

# Test system: P388
# assay_notes: Average increase in life span of treated animals over control groups of tumor-bearing untreated animals when given at optimal dose (in vivo)
# Type: functional, Mus musculus
Please respond with satisfied when measured ILS max is strictly beneath 40, and with not satisfied in all other cases.

                               given_smiles  assay_system  category_label
0     CN(C)CCNC(=O)c1cccc2nc3cccc(Cl)c3nc12          P388   not satisfied
1   CN(C)CCNC(=O)c1cc2ccccc2c2nc3ccccc3nc12          P388   not satisfied
2     CN(C)CCNC(=O)c1cc(Cl)cc2nc3ccccc3nc12          P388   not satisfied
3       COc1ccc2nc3ccccc3nc2c1C(=O)NCCN(C)C          P388       satisfied
4       CN(C)CCCCNC(=O)c1cccc2nc3ccccc3nc12          P388   not satisfied
5   CN(C)CCNC(=O)c1cccc2nc3ccc4ccccc4c3nc12          P388   not satisfied
6     CN(C)CCNC(=O)c1cccc2nc3cc(Cl)ccc3nc12          P388       satisfied
7  CN(C)CCNC(=O)c1cccc2nc3c(ccc4ccccc43)nc12          P388       satisfied
8      Cc1ccc2nc3cccc(C(=O)NCCN(C)C)c3nc2c1          P388   not satisfied
9      Cc1cccc2nc3c(C(=O)NCCN(C)C)cccc3nc12          P388   not satisfied
